Target: AmnC (2-aminomuconic 6-semialdehyde dehydrogenase) (Pseudomonas sp., UniProt Q9KWS5, DEL124-138/DEL477-491)
Sequence (Q9KWS5 1-476 DEL124-138): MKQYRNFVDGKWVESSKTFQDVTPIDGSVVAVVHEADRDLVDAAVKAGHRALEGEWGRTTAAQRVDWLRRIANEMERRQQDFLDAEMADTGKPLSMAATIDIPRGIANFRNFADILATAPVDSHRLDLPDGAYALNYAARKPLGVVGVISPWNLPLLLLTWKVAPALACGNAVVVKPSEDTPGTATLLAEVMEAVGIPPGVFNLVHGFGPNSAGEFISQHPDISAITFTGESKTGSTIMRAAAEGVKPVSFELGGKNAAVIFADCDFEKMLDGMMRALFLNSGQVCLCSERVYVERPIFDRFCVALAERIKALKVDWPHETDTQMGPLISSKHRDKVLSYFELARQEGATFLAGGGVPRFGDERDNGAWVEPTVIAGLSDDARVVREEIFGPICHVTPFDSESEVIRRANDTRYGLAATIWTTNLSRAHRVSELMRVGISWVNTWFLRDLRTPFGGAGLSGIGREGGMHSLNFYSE
Experiment: microscale thermophoresis
OUTCOME_MEASURE: pKd
Remember the convention: pKd equals -log10 of concentration in molar.

Req: # input molecule: `NC(=O)c1ccc[n+]([C@@H]2O[C@H](COP(=O)(O)OP(=O)(O)OC[C@H]3O[C@@H](n4cnc5c(N)ncnc54)[C@H](O)[C@@H]3O)[C@@H](O)[C@H]2O)c1` ; wanted: its pKd
Resp: 2.52
